Data credit: patent US20230265116A1

Overview of recorded log10 DC50 for various molecules
biological target: EGFR L858R/T790M/C797S (BaF3-LTC cells) (Homo sapiens, UniProt P00533, C797S/L858R/T790M); construct: expressed in transfected cells; host or cells: BaF3; experiment: EGFR degradation HTRF assay, BaF3-LTC cells; assay type: cell-based; conditions: BaF3-LTC, 16h treatment; read-out: LTC DC50
Sequence (P00533 25-1210 T790M/C797S/L858R): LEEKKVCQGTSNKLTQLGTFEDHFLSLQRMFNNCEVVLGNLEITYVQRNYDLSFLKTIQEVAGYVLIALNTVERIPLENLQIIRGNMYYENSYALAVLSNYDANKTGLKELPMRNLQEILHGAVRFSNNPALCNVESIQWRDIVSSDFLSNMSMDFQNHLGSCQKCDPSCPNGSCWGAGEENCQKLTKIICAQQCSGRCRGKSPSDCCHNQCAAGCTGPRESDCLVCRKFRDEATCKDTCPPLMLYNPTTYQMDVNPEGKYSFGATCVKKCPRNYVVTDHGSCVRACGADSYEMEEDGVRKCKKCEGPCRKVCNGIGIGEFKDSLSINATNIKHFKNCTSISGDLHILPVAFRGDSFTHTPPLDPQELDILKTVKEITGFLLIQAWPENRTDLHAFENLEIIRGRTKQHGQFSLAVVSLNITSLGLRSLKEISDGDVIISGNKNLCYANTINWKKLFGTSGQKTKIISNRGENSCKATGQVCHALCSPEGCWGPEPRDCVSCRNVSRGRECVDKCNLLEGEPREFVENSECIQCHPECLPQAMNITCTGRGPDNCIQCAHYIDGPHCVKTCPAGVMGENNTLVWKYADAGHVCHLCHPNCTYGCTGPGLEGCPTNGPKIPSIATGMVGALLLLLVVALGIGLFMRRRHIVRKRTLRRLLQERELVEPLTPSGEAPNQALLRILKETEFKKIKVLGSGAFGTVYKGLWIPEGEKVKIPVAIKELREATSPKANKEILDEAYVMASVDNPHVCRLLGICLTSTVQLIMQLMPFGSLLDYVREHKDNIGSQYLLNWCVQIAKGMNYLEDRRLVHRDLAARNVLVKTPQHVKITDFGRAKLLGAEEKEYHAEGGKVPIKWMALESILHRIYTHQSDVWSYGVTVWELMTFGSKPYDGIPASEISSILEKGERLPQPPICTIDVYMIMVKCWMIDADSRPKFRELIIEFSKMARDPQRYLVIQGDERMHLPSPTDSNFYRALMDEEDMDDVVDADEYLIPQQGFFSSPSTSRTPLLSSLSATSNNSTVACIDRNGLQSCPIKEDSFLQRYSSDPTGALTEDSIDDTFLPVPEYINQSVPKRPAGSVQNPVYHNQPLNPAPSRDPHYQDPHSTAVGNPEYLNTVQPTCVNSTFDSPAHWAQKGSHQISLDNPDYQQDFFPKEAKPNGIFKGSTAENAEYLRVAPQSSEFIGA
metric: log10 DC50 (log10 of the value in nM)

{"molecule": "CCc1cc(Nc2ncc(Br)c(Nc3ccc4nccnc4c3P(C)(C)=O)n2)c(OC)cc1N1CCC(N2CCN(CCC3CCN(c4ccc5c(c4)CN(C4CCC(=O)NC4=O)C5=O)CC3)CC2)CC1 (centres unmarked)", "target-entity": "EGFR L858R/T790M/C797S (BaF3-LTC cells) (Homo sapiens, UniProt P00533, C797S/L858R/T790M)", "log10 DC50": 1.09}
{"molecule": "CCc1cc(Nc2ncc(Br)c(Nc3ccc4nc(CO)ccc4c3P(C)(C)=O)n2)c(OC)cc1N1CCC(N2CCN(CCc3cc(F)c(C4CCC(=O)NC4=O)c(F)c3)CC2)CC1 (centres unmarked)", "target-entity": "EGFR L858R/T790M/C797S (BaF3-LTC cells) (Homo sapiens, UniProt P00533, C797S/L858R/T790M)", "log10 DC50": 0.46}
{"molecule": "CCc1cc(Nc2ncc(Br)c(Nc3ccc4nccnc4c3P(C)(C)=O)n2)c(OC)cc1N1CCC(N2CCN(C(=O)C3CN(c4ccc5nn(C6CCC(=O)NC6=O)cc5c4)C3)CC2)CC1 (centres unmarked)", "target-entity": "EGFR L858R/T790M/C797S (BaF3-LTC cells) (Homo sapiens, UniProt P00533, C797S/L858R/T790M)", "log10 DC50": 1.11}
{"molecule": "CCc1cc(Nc2ncc(Br)c(Nc3ccc4nccnc4c3P(C)(C)=O)n2)c(OC)cc1N1CCC(N2CCN(C[C@@H]3CCN(c4ccc(C5CCC(=O)NC5=O)cc4)C3)CC2)CC1 (some centres unmarked)", "target-entity": "EGFR L858R/T790M/C797S (BaF3-LTC cells) (Homo sapiens, UniProt P00533, C797S/L858R/T790M)", "log10 DC50": 1.56}
{"molecule": "CCc1cc(Nc2ncc(Br)c(Nc3ccc4nc(C(F)(F)F)ccc4c3P(C)(C)=O)n2)c(OC)cc1N1CCC(N2CCN(CCc3cc(F)c(C4CCC(=O)NC4=O)c(F)c3)CC2)CC1 (centres unmarked)", "target-entity": "EGFR L858R/T790M/C797S (BaF3-LTC cells) (Homo sapiens, UniProt P00533, C797S/L858R/T790M)", "log10 DC50": 1.38}
